// provenance: paper PMC8158265

assayedTarget: recombinant human S-COMT (Homo sapiens, UniProt P21964)
Construct: made in house
Sequence (P21964 1-221 isoform P21964-2): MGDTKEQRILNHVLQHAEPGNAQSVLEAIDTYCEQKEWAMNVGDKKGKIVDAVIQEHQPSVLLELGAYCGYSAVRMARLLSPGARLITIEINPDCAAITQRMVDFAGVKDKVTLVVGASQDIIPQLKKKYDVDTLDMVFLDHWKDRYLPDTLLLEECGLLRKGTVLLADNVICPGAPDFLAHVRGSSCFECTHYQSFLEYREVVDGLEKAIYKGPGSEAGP
experimentDescription: COMT activity inhibition assay (enzymatic activity based fluorescence assay, 3-BTD substrate)
Type: biochemical
statedConditions: 2.0 μg/mL human S-COMT, 2.0 μM 3-BTD as substrate, 200 μM SAM; mean ± SE; read-out: IC50
pIC50: −log10 of the molar value.
endpoint: pIC50

C=C(C)[C@@H]1CC[C@]2(C(=O)O)CC[C@]3(C)[C@H](CC[C@@H]4[C@@]5(C)CCC(=O)C(C)(C)[C@@H]5CC[C@]43C)[C@@H]12 [Compound 17, Betulonic acid]
4.95
C=C(C)[C@@H]1CC[C@]2(C(=O)O)CC[C@]3(C)[C@H](CC[C@@H]4[C@@]5(C)CC[C@H](O)C(C)(C)[C@@H]5CC[C@]43C)[C@@H]12 [Compound 11, Betulinic acid]
5.29
C[C@H]1[C@H](C)CC[C@]2(C(=O)O)CC[C@]3(C)C(=CC[C@@H]4[C@@]5(C)CC[C@H](O)C(C)(C)[C@@H]5CC[C@]43C)[C@H]12 [Compound 7, Ursolic acid]
4.82
